- PROTOCOL_SUMMARY: Cytotoxicity against rat L6 cells
- Type: toxicity, cell-based
Starred links: 1 amine or outer side, 2 acyl side, 3 side chain; linkers in the order of their positions; H or OH if unused. Non-standard residues stand in square brackets, D forms with d. Residues, ends and D or L forms follow the SMILES beside them. *: point of attachment. X1 = CCC(=O)C[C@@H](O)C[C@@H](C)C[C@H](N[*:1])C(=O)[*:2]; Hexenoyl(2E,4S-Me) = CC[C@H](C)/C=C/C(=O)*; Leu(3R-OH) = CC(C)[C@@H](O)[C@H](N)C(=O)O; NH((S)CH(Me)CH2NMe2) = C[C@@H](CN(C)C)N*; Pro(4S-Me) = C[C@@H]1CN[C@H](C(=O)O)C1; Aib = CC(C)(N)C(=O)O; βAla = NCCC(=O)O
ENDPOINT_NAME: IC50 (nM)

[
  {
    "MOLECULE": "CCC(=O)C[C@@H](O)C[C@@H](C)C[C@H](NC(=O)[C@@H]1C[C@H](C)CN1C(=O)/C=C/[C@@H](C)CC)C(=O)N[C@H](C(=O)NC(C)(C)C(=O)N[C@@H](CC(C)C)C(=O)N[C@@H](CC(C)C)C(=O)NC(C)(C)C(=O)NC(C)(C)C(=O)NCCC(=O)N[C@@H](C)CN(C)C)[C@H](O)C(C)C ({Hexenoyl(2E,4S-Me)}-[Pro(4S-Me)][X1][Leu(3R-OH)][Aib]LL[Aib][Aib][βAla]-{NH((S)CH(Me)CH2NMe2)})",
    "MEAS_VALUE": 259
  }
]

---

- PROTOCOL_SUMMARY: Toxicity in po dosed mouse assessed as lethal dose
- Assay type: organism-based
- TEST_CONTEXT: in vivo
Starred links: 1 amine or outer side, 2 acyl side, 3 side chain; linkers in the order of their positions; H or OH if unused. Non-standard residues stand in square brackets, D forms with d. Residues, ends and D or L forms follow the SMILES beside them. *: point of attachment. X1 = CCC(=O)C[C@@H](O)C[C@@H](C)C[C@H](N[*:1])C(=O)[*:2]; Hexenoyl(2E,4S-Me) = CC[C@H](C)/C=C/C(=O)*; Leu(3R-OH) = CC(C)[C@@H](O)[C@H](N)C(=O)O; NH((S)CH(Me)CH2NMe2) = C[C@@H](CN(C)C)N*; Pro(4S-Me) = C[C@@H]1CN[C@H](C(=O)O)C1; Aib = CC(C)(N)C(=O)O; βAla = NCCC(=O)O

[
  {
    "COMPOUND": "CCC(=O)C[C@@H](O)C[C@@H](C)C[C@H](NC(=O)[C@@H]1C[C@H](C)CN1C(=O)/C=C/[C@@H](C)CC)C(=O)N[C@H](C(=O)NC(C)(C)C(=O)N[C@@H](CC(C)C)C(=O)N[C@@H](CC(C)C)C(=O)NC(C)(C)C(=O)NC(C)(C)C(=O)NCCC(=O)N[C@@H](C)CN(C)C)[C@H](O)C(C)C ({Hexenoyl(2E,4S-Me)}-[Pro(4S-Me)][X1][Leu(3R-OH)][Aib]LL[Aib][Aib][βAla]-{NH((S)CH(Me)CH2NMe2)})",
    "LD50": "5.4 mg/kg"
  }
]
